Ref: patent EP3529257B1

Attribute: Avg Emax 2A (%)
target entity: GlunN1/GluN2A glutamate receptors (Homo sapiens, UniProt Q05586+Q12879)
Construct: expressed in transfected cells
Sequence (Q12879 23-1464, other chains not shown): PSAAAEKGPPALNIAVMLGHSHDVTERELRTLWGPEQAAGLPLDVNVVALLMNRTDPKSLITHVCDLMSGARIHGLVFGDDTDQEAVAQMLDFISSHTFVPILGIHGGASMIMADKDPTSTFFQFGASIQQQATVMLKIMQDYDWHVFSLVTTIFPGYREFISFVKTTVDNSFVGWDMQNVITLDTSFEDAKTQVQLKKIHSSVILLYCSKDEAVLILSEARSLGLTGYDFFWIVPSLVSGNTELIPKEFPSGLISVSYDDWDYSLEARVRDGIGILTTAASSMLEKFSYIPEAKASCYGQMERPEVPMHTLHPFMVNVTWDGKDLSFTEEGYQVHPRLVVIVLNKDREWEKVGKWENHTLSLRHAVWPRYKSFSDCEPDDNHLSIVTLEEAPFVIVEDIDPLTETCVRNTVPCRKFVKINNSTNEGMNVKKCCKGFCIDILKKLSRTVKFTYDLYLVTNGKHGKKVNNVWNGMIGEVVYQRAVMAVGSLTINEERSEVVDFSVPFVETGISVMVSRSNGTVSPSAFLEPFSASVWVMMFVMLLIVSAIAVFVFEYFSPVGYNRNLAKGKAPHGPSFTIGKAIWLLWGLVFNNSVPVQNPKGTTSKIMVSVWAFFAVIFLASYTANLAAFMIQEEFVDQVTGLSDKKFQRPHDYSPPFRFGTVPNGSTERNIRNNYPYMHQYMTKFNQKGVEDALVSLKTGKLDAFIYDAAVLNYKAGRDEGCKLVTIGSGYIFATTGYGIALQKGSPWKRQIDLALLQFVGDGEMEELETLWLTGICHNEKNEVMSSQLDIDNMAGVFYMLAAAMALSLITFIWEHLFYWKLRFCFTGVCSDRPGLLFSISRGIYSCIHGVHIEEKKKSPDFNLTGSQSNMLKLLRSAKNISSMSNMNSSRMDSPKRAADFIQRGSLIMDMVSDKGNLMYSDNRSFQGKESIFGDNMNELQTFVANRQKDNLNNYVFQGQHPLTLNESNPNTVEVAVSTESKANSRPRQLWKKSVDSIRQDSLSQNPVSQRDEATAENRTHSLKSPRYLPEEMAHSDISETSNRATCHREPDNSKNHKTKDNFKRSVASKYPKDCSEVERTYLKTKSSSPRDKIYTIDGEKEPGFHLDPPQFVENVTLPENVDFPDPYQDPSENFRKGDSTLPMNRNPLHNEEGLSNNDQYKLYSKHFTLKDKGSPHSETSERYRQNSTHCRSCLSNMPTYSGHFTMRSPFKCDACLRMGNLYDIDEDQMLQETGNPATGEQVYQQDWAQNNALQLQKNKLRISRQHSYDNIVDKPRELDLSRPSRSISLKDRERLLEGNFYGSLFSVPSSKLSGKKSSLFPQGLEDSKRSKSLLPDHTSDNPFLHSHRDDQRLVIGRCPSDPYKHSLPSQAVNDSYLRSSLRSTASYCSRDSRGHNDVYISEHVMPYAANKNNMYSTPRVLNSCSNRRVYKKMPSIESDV
assay info: Whole-cell patch clamp of mammalian cells (Ionworks Barracuda), positive allosteric modulation (PAM) of NMDA receptor, 2A
Format: cell-based
experimental parameters: HEK293 cells; % activation of current elicited with EC20 L-glutamate and 30 µM glycine
Report the value in % with no unit label.

Example entries begin here.
compound: CC[C@H](O)CCC[C@@H](C)[C@H]1CC[C@H]2[C@@H]3CC=C4C[C@](O)(CC)CC[C@@H]4[C@H]3CC[C@]12C
target entity: GlunN1/GluN2A glutamate receptors (Homo sapiens, UniProt Q05586+Q12879)
units symbol: %
measured value: 97.4

compound: CCC(O)CCC[C@@H](C)[C@H]1CC[C@H]2[C@@H]3CC=C4C[C@](O)(CC)CC[C@@H]4[C@H]3CC[C@]12C (stereo partly drawn)
target entity: GlunN1/GluN2A glutamate receptors (Homo sapiens, UniProt Q05586+Q12879)
units symbol: %
measured value: 215.5

# ---- query compound ----
Requested field: Avg Emax 2A (%). Item: C[C@H](O)CCC[C@@H](C)[C@H]1CC[C@H]2[C@@H]3CC[C@H]4C[C@](O)(C(F)(F)F)CC[C@]4(C)[C@H]3CC[C@]12C 402.7

* * *

target entity: GlunN1/GluN2A glutamate receptors (Homo sapiens, UniProt Q05586+Q12879)
Construct: expressed in transfected cells
assay info: Whole-cell patch clamp of mammalian cells (Ionworks Barracuda), positive allosteric modulation (PAM) of NMDA receptor, 2A
Type: cell-based
experimental parameters: HEK293, HEK293 cells; % activation of current elicited with EC20 L-glutamate and 30 µM glycine
quantity measured: Emax (%)
Numbers only; they are read as %.

compound: C[C@H](CC[C@H](O)C(C)(C)C)[C@H]1CC[C@H]2[C@@H]3CC[C@H]4C[C@](O)(C(F)(F)F)CC[C@]4(C)[C@H]3CC[C@]12C [Compound 2184]
Emax [%]: 234
--
compound: C[C@H](CC[C@]1(O)CC[C@H](C)CC1)[C@H]1CC[C@H]2[C@@H]3CC[C@H]4C[C@](O)(C(F)(F)F)CC[C@]4(C)[C@H]3CC[C@]12C [Compound 3877]
Emax [%]: 42.4

Could you tell me which Emax is on file for C[C@H](CC[C@]1(O)CCOC1)[C@H]1CC[C@H]2[C@@H]3CC=C4C[C@](O)(C(F)(F)F)CC[C@]4(C)[C@H]3CC[C@]12C [Compound 3496] ? 319

Reported Emax, compound CC(C)[C@@H](O)CC[C@@H](C)[C@H]1CC[C@H]2[C@@H]3CC=C4C[C@](O)(C(F)(F)F)CC[C@]4(C)[C@H]3CC[C@]12C [Compound 1-A] : ____ 275

Give its Emax value. Item: C[C@H](CCCC1(O)CC1)[C@H]1CC[C@H]2[C@@H]3CC[C@H]4C[C@](O)(C(F)(F)F)CC[C@]4(C)[C@H]3CC[C@]12C [Compound 4115] 186

I have this compound here, C[C@H](CC[C@@H](O)C(F)(F)F)[C@H]1CC[C@H]2[C@@H]3CC=C4C[C@](O)(C(F)(F)F)CC[C@]4(C)[C@H]3CC[C@]12C [Compound 3149] , and I need its recorded Emax. 292

Quick one: Emax for C[C@H](CC[C@@](C)(O)c1ccccc1)[C@H]1CC[C@H]2[C@@H]3CC=C4C[C@@](C)(O)CC[C@]4(C)[C@H]3CC[C@]12C [Compound 7467] ? 20.5

Sample C[C@H](CCC1(O)CCCCCC1)[C@H]1CC[C@H]2[C@@H]3CC[C@H]4C[C@](O)(C(F)(F)F)CC[C@]4(C)[C@H]3CC[C@]12C [Compound 3983] — what was its Emax? 176

Look at this compound and give its reported Emax. C[C@H](O)CC[C@@H](C)[C@H]1CC[C@H]2[C@@H]3CC[C@H]4C[C@](O)(C(F)(F)F)CC[C@]4(C)[C@H]3CC[C@]12C [Compound 6] 137

Consider the compound C[C@H](CC[C@@H](O)C(C)(C)C)[C@H]1CC[C@H]2[C@@H]3CC=C4C[C@](O)(C(F)(F)F)CC[C@]4(C)[C@H]3CC[C@]12C [Compound 3382] and give its measured Emax. 309
